Reported % of binding in the absence of HGF by item:
# EXPERIMENTAL SYSTEM: T1, cMet-Fc fusion protein (extracellular domain of the cMet receptor expressed as an Fc-fusion protein) (human, UniProt P08581 25-932)
# T1 construct: extracellular domain; also called soluble cMet-Fc-fusion protein; soluble cMet receptor; not shown: Fc part
# T1 sequence (P08581 25-932): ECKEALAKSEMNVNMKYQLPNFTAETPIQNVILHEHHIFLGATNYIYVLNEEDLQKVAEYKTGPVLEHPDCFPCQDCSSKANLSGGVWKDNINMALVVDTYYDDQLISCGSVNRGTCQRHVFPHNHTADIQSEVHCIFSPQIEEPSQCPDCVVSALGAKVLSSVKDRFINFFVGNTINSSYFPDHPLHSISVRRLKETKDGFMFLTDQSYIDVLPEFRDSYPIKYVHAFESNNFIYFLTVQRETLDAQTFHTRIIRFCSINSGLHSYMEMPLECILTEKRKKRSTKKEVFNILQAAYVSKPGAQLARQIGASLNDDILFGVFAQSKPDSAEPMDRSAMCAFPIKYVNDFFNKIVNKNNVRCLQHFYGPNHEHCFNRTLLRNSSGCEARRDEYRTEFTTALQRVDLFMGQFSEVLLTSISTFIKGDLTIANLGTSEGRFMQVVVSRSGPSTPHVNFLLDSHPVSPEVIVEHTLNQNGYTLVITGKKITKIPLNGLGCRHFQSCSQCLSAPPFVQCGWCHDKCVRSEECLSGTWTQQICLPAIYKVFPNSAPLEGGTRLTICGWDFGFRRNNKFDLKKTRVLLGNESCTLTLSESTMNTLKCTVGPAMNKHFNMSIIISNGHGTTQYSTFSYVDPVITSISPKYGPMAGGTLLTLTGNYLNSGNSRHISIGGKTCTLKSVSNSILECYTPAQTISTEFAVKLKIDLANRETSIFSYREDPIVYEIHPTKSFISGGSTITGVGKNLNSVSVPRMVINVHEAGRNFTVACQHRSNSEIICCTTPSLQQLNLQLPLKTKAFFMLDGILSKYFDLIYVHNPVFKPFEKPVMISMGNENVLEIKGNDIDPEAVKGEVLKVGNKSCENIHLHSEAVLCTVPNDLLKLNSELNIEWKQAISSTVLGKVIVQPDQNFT
# EXPERIMENT NOTES: phage ELISA on cMet-Fc, competitor HGF 100 ng/mL
Unit % implied. Number only.

Below: 6 binders and their reported % of binding in the absence of HGF.
BINDER	U	% of binding in the absence of HGF
AGETFCSGWPTFECMQWGT [547-H03 peptide-displaying phage (SEQ ID NO: 095)]	%	109
GSFWNCTTDLGAMSDCGFFAP [445-E07 peptide-displaying phage (SEQ ID NO: 383)]	%	82
AQWGAVDNDWYDWEMEQIWMFE [527-E08 peptide-displaying phage (SEQ ID NO: 491)]	%	98
GSQQICDRKEYRFQACLSDAP [443-H10 peptide-displaying phage (SEQ ID NO: 371)]	%	124
GSGMGCHQVNISTGDCAEDAP [442-E03 peptide-displaying phage (SEQ ID NO: 381)]	%	130
AQNAVVPPPMLWSIYWDYGREG [94-H04 peptide-displaying phage (SEQ ID NO: 457)]	%	150

### Prompt Request the reported % of binding in the absence of HGF associated with AGQYLCTQAALGCPEWGT [465-E11 peptide-displaying phage (SEQ ID NO: 029)]
### Response 33

### Prompt Request the reported % of binding in the absence of HGF associated with AGKTVCQKWESVCSGMGT [465-C11 peptide-displaying phage (SEQ ID NO: 038)]
### Response 41

### Prompt Request the reported % of binding in the absence of HGF associated with AGHWICVGPPTFSCQWHGT [330-G09 peptide-displaying phage (SEQ ID NO: 071)]
### Response 42
